# System: 429239-143-T-J1-PDC complex spheroid viability;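 note: luminescence signal used as surrogate measure of viable cells; spheroids exposed to compounds for seven days before readout; 100% = DMSO vehicle control viability as luminescence relative to vehicle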
# TEST NAME: Anticancer human tumor 429239-143-T-J1-PDC patient-derived small cell lung carcinoma cell line growth inhibition [POLQ]
# TEST SETTINGS: second compound 3.16 µM; first compound 10 µM; hits give low values
I'd appreciate it if you could supply viability, T/C values for the items below.
Numbers only, in %.

Reference set, count: 8
[
  {
    "MOLECULE": "O=C(c1cc(Cc2n[nH]c(=O)c3ccccc23)ccc1F)N1CCN(C(=O)C2CC2)CC1 + Cc1cccc(N(C)C(=O)C2C(O)CCN2c2nc(C)cc(C(F)(F)F)c2C#N)c1",
    "UNIT SPEC": "%",
    "VALUE OBSERVED": 21
  },
  {
    "MOLECULE": "COc1cc2cc(C(=O)CCC(=O)O)sc2cc1OC + COC1C(OC(N)=O)C(O)C(Oc2ccc3c(O)c(NC(=O)c4ccc(O)c(CC=C(C)C)c4)c(=O)oc3c2C)OC1(C)C",
    "UNIT SPEC": "%",
    "VALUE OBSERVED": 101
  },
  {
    "MOLECULE": "C=CC(=O)N1CCN(c2nc(=O)n(-c3c(C)ccnc3C(C)C)c3nc(-c4c(O)cccc4F)c(F)cc23)C(C)C1 (stereo not given) + Nc1ccc(C#CCN(C(=O)Cc2ncc(C(F)(F)F)cc2C(F)(F)F)c2ccc(F)cc2)nn1",
    "UNIT SPEC": "%",
    "VALUE OBSERVED": 97.3
  },
  {
    "MOLECULE": "CC1COCCN1c1cc(-c2ccnn2C)c2ccnc(-c3ccn[nH]3)c2n1 (stereo not given) + COC1C(OC(N)=O)C(O)C(Oc2ccc3c(O)c(NC(=O)c4ccc(O)c(CC=C(C)C)c4)c(=O)oc3c2C)OC1(C)C",
    "UNIT SPEC": "%",
    "VALUE OBSERVED": 9.32
  },
  {
    "MOLECULE": "O=C(Nc1ccc(O)c(NS(=O)(=O)c2ccc(F)cc2)c1)c1ccc(-c2ccccc2)cc1 + COC1C(OC(N)=O)C(O)C(Oc2ccc3c(O)c(NC(=O)c4ccc(O)c(CC=C(C)C)c4)c(=O)oc3c2C)OC1(C)C",
    "UNIT SPEC": "%",
    "VALUE OBSERVED": 76.9
  },
  {
    "MOLECULE": "COc1cc(C2c3cc4c(cc3C(OC3OC5COC(C)OC5C(O)C3O)C3COC(=O)C23)OCO4)cc(OC)c1O (stereo not given) + Nc1ccc(C#CCN(C(=O)Cc2ncc(C(F)(F)F)cc2C(F)(F)F)c2ccc(F)cc2)nn1",
    "UNIT SPEC": "%",
    "VALUE OBSERVED": 8.11
  },
  {
    "MOLECULE": "COc1ccc([C@@H](O)c2cc(-c3ncnc4cc(N5CCOCC5)ccc34)c(F)cc2Cl)nn1 + Nc1ccc(C#CCN(C(=O)Cc2ncc(C(F)(F)F)cc2C(F)(F)F)c2ccc(F)cc2)nn1",
    "UNIT SPEC": "%",
    "VALUE OBSERVED": 43.5
  },
  {
    "MOLECULE": "O=C(c1cc(Cc2n[nH]c(=O)c3ccccc23)ccc1F)N1CCN(C(=O)C2CC2)CC1 + COC1C(OC(N)=O)C(O)C(Oc2ccc3c(O)c(NC(=O)c4ccc(O)c(CC=C(C)C)c4)c(=O)oc3c2C)OC1(C)C",
    "UNIT SPEC": "%",
    "VALUE OBSERVED": 19
  }
]

Batch lookup, viability, T/C per entry.
1. CCc1cc2c(N3CCc4c(cc(Cn5ccnc5)cc4-c4cn(C)nc4C(F)(F)F)C3=O)ccnc2c(OC)n1 + Cc1cccc(N(C)C(=O)C2C(O)CCN2c2nc(C)cc(C(F)(F)F)c2C#N)c1
2. CC(C)n1c(=O)n(C)c2cnc3cc(F)c(-c4ccc(OCCCN5CCCCC5)nc4)cc3c21 + COC1C(OC(N)=O)C(O)C(Oc2ccc3c(O)c(NC(=O)c4ccc(O)c(CC=C(C)C)c4)c(=O)oc3c2C)OC1(C)C

[reply]
[50.8, 83.6]
